All values here come from ChEMBL document CHEMBL5724709.

# Test system: HEK-293T
# ASSAY_SUMMARY: Incucyte cell viability with HEK293T; also: unitless GR value; below 1 slowed growth and below 0 cell loss
# Type: toxicity, cell-based
# EXPERIMENTAL_PARAMETERS: human, 24 h, 10 µM, compound concentration 10 uM, replicate number 1
Peptide text beside a SMILES is read from it.
ASSAY_ENDPOINT: Growth Rate
Reply with just the number.

Check out these entries, answers already filled in.
O=C(Nc1ccc2[nH]nc(-c3ccncc3)c2c1)[C@@H]1CCN(CC(=O)N2CCN(c3ccc(-c4ncccn4)cc3)CC2)C1 | -0.08
COc1cc(Oc2ccnc3cc(OC)c(OC)cc23)ccc1NC(=O)NC(C)c1nccs1 (stereo not drawn) | 1
CCOC(=O)NCCCC(=O)NCCc1ccccc1 | 0.61

Lookup: Data request, read-out Growth Rate, for CC(C)(O)c1ccc(-c2nc3c(F)cc(F)cc3c(=O)[nH]2)cc1
Found: 0.45

Lookup: Now try CC(=O)N[C@H](C(=O)N[C@@H](CC(=O)O)C(=O)N[C@H](C(=O)N[C@@H](C)C(=O)N[C@H](C=O)CC(=O)O)C(C)C)C(C)C (Ac-VDVAD-aldehyde) .
Found: 0.65

Lookup: Now try Cn1c(=O)c2c(nc(N3CCNCC3)n2Cc2nnc(-c3ccc(Cl)c(Cl)c3)o2)n(C)c1=O .
Found: 0.79

Lookup: Now try COc1ccc2c(c1)OC(C)(C)C(c1ccccc1)C2c1ccc(OCCN2CCCC2)cc1 (stereo not drawn) .
Found: 0.93

Lookup: Now try Cc1cc(-c2ccc3nc(C4CCOCC4)n(CCOC(F)(F)F)c3c2)cn(C)c1=O .
Found: 0.62

----------
# Tested on: HEK-293T
# ASSAY_SUMMARY: Incucyte cell viability with HEK293T; also: unitless GR value; below 1 slowed growth and below 0 cell loss
# Format: toxicity, cell-based
# EXPERIMENTAL_PARAMETERS: human, 24 h, 10 µM, compound concentration 10 uM, replicate number 1
Peptide text beside a SMILES is read from it. * marks the point of attachment. CH2Cl = ClC*
Mark each entry true (1) if its Growth Rate sits below 0.6, and false (0) for all others.

Here's what some known entries look like.
NC(=O)c1ccc(Oc2ccc(C(N)=O)cc2)cc1 | false (0)
CC[C@H](C)[C@H](NC(=O)[C@H](CCC(=O)O)NC(=O)[C@@H](NC(C)=O)C(C)C)C(=O)N[C@H](C=O)CC(=O)O.O=C(O)C(F)(F)F (Ac-VEID-aldehyde) | false (0)
CC(=O)N[C@@H](CC(C)C)C(=O)N[C@@H](CCC(=O)O)C(=O)N[C@@H](Cc1cnc[nH]1)C(=O)N[C@@H](CC(=O)O)C(=O)CCl.O=C(O)C(F)(F)F (Ac-LEHD-CH2Cl) | true (1)
C[C@]12CC[C@@H]3c4ccc(O)cc4C[C@@H](CCCCCCCCC[S+]([O-])CCCC(F)(F)C(F)(F)F)[C@H]3[C@@H]1CC[C@@H]2O (some centres not stated) [FULVESTRANT] | true (1)

As a next step, examine the compound that follows.
Lookup: Please state whether Growth Rate is below 0.6 for CCC(=O)N1CCOc2c(cc(-c3cc(OC)cc(OC)c3)cc2C(=O)N[C@H]2CCCN(C)C2)C1
Found: true (1)

----------
Recorded Growth Rate, one value per entry.
# Test system: Fibroblast
# ASSAY_SUMMARY: Incucyte cell viability with human fibroblast; also: unitless GR value; below 1 slowed growth and below 0 cell loss
# Assay type: toxicity, cell-based
# EXPERIMENTAL_PARAMETERS: 24 h, 10 µM, compound concentration 10 uM, replicate number 2
Reply with just the number.

CN1CCN(c2nc(-c3ccc(C(=O)NC4(C(=O)NCC#N)CCCCC4)cc3)cs2)CC1 | 1

Lookup: Data request, read-out Growth Rate, for CC(C)[C@@H]1C(=O)N(S(C)(=O)=O)[C@@H]2CCN(C(=O)/C=C/CN3CCCCC3)[C@H]21.Cl
Found: 1

Lookup: Now try O=C(NC[C@H](O)CN1CCc2ccccc2C1)c1cc(NC2COC2)ncn1 .
Found: 0.5

Lookup: Now try COc1cccc(-c2nccc3c2CN(c2ccccc2)C3=O)c1 .
Found: 0.84

Lookup: Now try Nc1nc2cc(CC[C@H]3C[C@@H](n4ccc5c(N)ncnc54)[C@H](O)[C@@H]3O)ccc2cc1Br .
Found: 0.06
